assayedTarget: full length N-terminally FLAG-tagged PARP1 (Homo sapiens, UniProt P09874)
Sequence (P09874 whole entry): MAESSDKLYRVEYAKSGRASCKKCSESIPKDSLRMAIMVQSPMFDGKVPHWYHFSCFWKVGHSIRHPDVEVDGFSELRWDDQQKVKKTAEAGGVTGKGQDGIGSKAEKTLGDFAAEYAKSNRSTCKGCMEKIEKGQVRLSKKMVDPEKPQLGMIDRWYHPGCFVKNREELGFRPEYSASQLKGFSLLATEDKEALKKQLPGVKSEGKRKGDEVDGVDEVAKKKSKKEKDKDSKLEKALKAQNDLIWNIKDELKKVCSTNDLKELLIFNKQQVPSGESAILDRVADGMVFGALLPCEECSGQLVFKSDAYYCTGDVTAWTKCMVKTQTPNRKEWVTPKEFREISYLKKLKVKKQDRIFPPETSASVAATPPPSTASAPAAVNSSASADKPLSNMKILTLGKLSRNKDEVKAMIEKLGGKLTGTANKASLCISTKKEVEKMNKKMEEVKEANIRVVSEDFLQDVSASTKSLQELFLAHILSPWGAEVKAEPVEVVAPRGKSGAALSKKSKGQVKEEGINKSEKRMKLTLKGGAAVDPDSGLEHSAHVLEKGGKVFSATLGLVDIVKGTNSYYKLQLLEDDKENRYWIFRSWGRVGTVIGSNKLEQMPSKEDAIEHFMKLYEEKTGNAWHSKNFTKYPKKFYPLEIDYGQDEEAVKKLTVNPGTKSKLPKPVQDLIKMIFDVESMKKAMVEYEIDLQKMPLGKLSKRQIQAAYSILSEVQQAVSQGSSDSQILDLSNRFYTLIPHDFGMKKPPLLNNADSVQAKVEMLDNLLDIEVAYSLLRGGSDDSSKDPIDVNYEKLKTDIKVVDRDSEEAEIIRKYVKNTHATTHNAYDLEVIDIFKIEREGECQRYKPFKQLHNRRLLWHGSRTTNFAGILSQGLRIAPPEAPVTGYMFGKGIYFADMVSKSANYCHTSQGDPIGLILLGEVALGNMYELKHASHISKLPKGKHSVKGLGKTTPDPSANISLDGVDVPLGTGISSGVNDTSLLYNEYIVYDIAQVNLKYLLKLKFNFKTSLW
protocolDetails: PARP1 probe displacement HTRF assay
measurementContext: read-out: PARP1 HTRF; binned Kd, PARP1 probe displacement HTRF
Each item that follows carries a reported Kd.

compound: CCc1ccc(C2CCN(C3CCN(c4ccc(C(=O)NC)nc4F)CC3)C2)[nH]c1=O (single isomer, unassigned) [Compound 151b]
Kd: < 10 nM

compound: CNC(=O)c1ccc(N2CCC(N3CCC(c4nc5cccc(Cl)c5c(=O)[nH]4)C3)CC2)cn1 (single isomer, unassigned) [Compound 85b]
Kd: < 10 nM

compound: CNC(=O)c1ccc(N2CCC(N3CCC(c4cc5ccc(F)cc5c(=O)[nH]4)C3)CC2)c(Cl)n1 (racemic)
Kd: < 10 nM
